system: HSV-1; assay: Antiviral activity, HSV-1 in Vero cells, plaque method; assay type: cell-based; conditions: Human alphaherpesvirus 1, 20 hours, 90% inhibition of plaque formation
EC90 under 6 µM gets Y, anything at or over 6 µM gets N.

Reference set (4 entries):
Cc1c(NC(=O)c2ccccc2F)ccc2nc(NC(C)(C)C(=O)N(C)CCc3ccccn3)oc(=O)c12 [Compound No.147] | N
CCOc1ccc(C(=O)Nc2ccc3nc(NC(C)(C)C(=O)N(C)CCc4ccccn4)oc(=O)c3c2C)cc1 [Compound No.164] | N
Cc1c(NC(=O)c2ccccc2COC(=O)c2ccccc2)ccc2nc(NC(C)(C)C(=O)N(C)CCc3ccccn3)oc(=O)c12 [Compound No.186] | Y
Cc1c(NC(=O)OC(C)(C)C)ccc2nc(N(C)[C@@H](C)C(=O)NCCc3ccccn3)oc(=O)c12 [Compound No.74] | N

We now examine a further molecule.
IN: Check if EC90 falls below 6 µM for Cc1c(NC(=O)OC(C)(C)C)ccc2nc(NC3(C(=O)N(C)Cc4cccnc4)CCCCC3)oc(=O)c12 [Compound No.120] .
OUT: N

* * *

test system: HSV-1; test: Antiviral activity, HSV-1 in Vero cells, plaque method; assay type: cell-based; conditions: Human alphaherpesvirus 1, 20 hours, 90% inhibition of plaque formation
QUANTITY KIND: EC90

Cc1c(NC(=O)c2cccc([N+](=O)[O-])c2)ccc2nc(NC(C)(C)C(=O)N(C)CCc3ccccn3)oc(=O)c12 | > 12.5 µM

IN: Sample Cc1c(NC(=O)OC(C)(C)C)ccc2nc(N3CCC[C@H]3C(=O)NCc3cccnc3)oc(=O)c12 — what was its EC90?
OUT: > 12.5 µM

IN: Sample Cc1c(NC(=O)OC(C)(C)C)ccc2nc(N(C)[C@@H](C)C(=O)N(C)CCc3ccncc3)oc(=O)c12 — what was its EC90?
OUT: > 12.5 µM

IN: Sample Cc1c(NC(=O)OC(C)(C)C)ccc2nc(N[C@@H](CCc3ccccc3)C(=O)NCc3ccncc3)oc(=O)c12 — what was its EC90?
OUT: > 25 µM

* * *

pIC50 tested on UniProtKB P10210: recorded values
// field semantics: pIC50 = negative decimal log of concentration (mol/L)

Cc1c(NC(=O)OC(C)(C)C)ccc2nc(N3CCC[C@H]3C(=O)N(C)Cc3ccccn3)oc(=O)c12 [Compound No.90] | 4.77
Cc1c(NC(=O)OC(C)(C)C)ccc2nc(N3CCCC[C@H]3C(=O)NCc3ccccn3)oc(=O)c12 [Compound No.102] | 5.80
Cc1c(NC(=O)CCCNC(=O)OCc2ccccc2)ccc2nc(NC(C)(C)C(=O)N(C)CCc3ccccn3)oc(=O)c12 [Compound No.204] | 6.52

IN: Sample Cc1c(NC(=O)c2ccccc2I)ccc2nc(NC(C)(C)C(=O)N(C)CCc3ccccn3)oc(=O)c12 [Compound No.155] — what was its pIC50?
OUT: 5.82

IN: Sample Cc1c(NC(=O)c2cccc(C(Cl)Cl)c2)ccc2nc(NC(C)(C)C(=O)N(C)CCc3ccccn3)oc(=O)c12 [Compound No.183] — what was its pIC50?
OUT: 5.89

IN: Sample Cc1c(NC(=O)OC(C)(C)C)ccc2nc(N3C[C@H](OCc4ccccc4)C[C@H]3C(=O)NCc3ccccn3)oc(=O)c12 [Compound No.109] — what was its pIC50?
OUT: 5.85

IN: Sample Cc1c(NC(=O)OC(C)(C)C)ccc2nc(N[C@H](C(=O)NCc3cccnc3)C(C)(C)C)oc(=O)c12 [Compound No.33] — what was its pIC50?
OUT: 5.00

IN: Sample Cc1c(NC(=O)c2sc3ccccc3c2Cl)ccc2nc(NC(C)(C)C(=O)N(C)CCc3ccccn3)oc(=O)c12 [Compound No.178] — what was its pIC50?
OUT: 6.05

IN: Sample Cc1c(NC(=O)OC(C)(C)C)ccc2nc(N[C@@H](Cc3ccccc3)C(=O)NCc3ccccn3)oc(=O)c12 [Compound No.20] — what was its pIC50?
OUT: 6.30

* * *

molecular target: UniProt P10210
// pIC50 lookup, one value per entry
// field semantics: pIC50 = negative decimal log of concentration (mol/L)

Cc1c(NC(=O)OC(C)(C)C)ccc2nc(NC(C)(C)C(=O)N(C)Cc3ccccn3)oc(=O)c12 | 5.96

IN: // fetch UniProt P10210 pIC50 for Cc1c(NC(=O)OC(C)(C)C)ccc2nc(N[C@@H](CC3CCCCC3)C(=O)N(C)Cc3ccccn3)oc(=O)c12
OUT: 5.92

IN: // fetch UniProt P10210 pIC50 for Cc1c(NC(=O)c2ccccc2Br)ccc2nc(NC(C)(C)C(=O)N(C)CCc3ccccn3)oc(=O)c12
OUT: 5.52

IN: // fetch UniProt P10210 pIC50 for Cc1c(NC(=O)c2ccc3c(c2)OCO3)ccc2nc(NC(C)(C)C(=O)N(C)CCc3ccccn3)oc(=O)c12
OUT: 5.43

IN: // fetch UniProt P10210 pIC50 for Cc1c(NC(=O)OC(C)(C)C)ccc2nc(N3CCCC[C@H]3C(=O)N(C)CCc3ccccn3)oc(=O)c12
OUT: 5.12

* * *

// pIC50 lookup, one value per entry
molecular target: HSV-1 protease (Human herpesvirus 1)
Sequence (P10210 1-247): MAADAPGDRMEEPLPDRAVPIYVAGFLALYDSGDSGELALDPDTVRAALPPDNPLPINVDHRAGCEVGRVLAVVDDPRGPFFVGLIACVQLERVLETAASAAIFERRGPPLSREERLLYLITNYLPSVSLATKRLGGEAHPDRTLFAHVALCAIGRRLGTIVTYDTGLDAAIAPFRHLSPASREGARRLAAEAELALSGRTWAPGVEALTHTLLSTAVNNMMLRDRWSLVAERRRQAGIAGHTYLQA
// field semantics: pIC50 = negative decimal log of concentration (mol/L)

For orientation, consider the following solved cases.
Cc1c(NC(=O)OC(C)(C)C)ccc2nc(N[C@@H](CC(C)C)C(=O)NCc3ccccn3)oc(=O)c12 | 5.24
Cc1c(NC(=O)OC(C)(C)C)ccc2nc(N[C@@H](CC(C)C)C(=O)N(C)CCc3ccncc3)oc(=O)c12 | 5.74
CCOc1ccc(C(=O)Nc2ccc3nc(NC(C)(C)C(=O)N(C)CCc4ccccn4)oc(=O)c3c2C)cc1 | 5.85
Cc1c(NC(=O)CCCNC(=O)c2ccc(C(F)(F)F)cc2)ccc2nc(NC(C)(C)C(=O)N(C)CCc3ccccn3)oc(=O)c12 | 6.52

IN: Sample Cc1c(NC(=O)OC(C)(C)C)ccc2nc(N[C@@H](CCc3ccccc3)C(=O)N(C)CCc3ccccn3)oc(=O)c12 — what was its pIC50?
OUT: 5.92

IN: Sample Cc1c(NC(=O)c2cccc(Cl)c2)ccc2nc(NC(C)(C)C(=O)N(C)CCc3ccccn3)oc(=O)c12 — what was its pIC50?
OUT: 5.74

IN: Sample Cc1cc(C(=O)Nc2ccc3nc(NC(C)(C)C(=O)N(C)CCc4ccccn4)oc(=O)c3c2C)c(C)o1 — what was its pIC50?
OUT: 5.72

IN: Sample Cc1c(NC(=O)CCNC(=O)OC(C)(C)C)ccc2nc(N[C@@H](C)C(=O)N(C)CCc3ccccn3)oc(=O)c12 — what was its pIC50?
OUT: 5.60

IN: Sample Cc1c(NC(=O)OC(C)(C)C)ccc2nc(N(C)CC(=O)N(C)CCc3ccccn3)oc(=O)c12 — what was its pIC50?
OUT: 6.40

IN: Sample Cc1c(NC(=O)OC(C)(C)C)ccc2nc(N(C)[C@@H](C)C(=O)N(C)CCc3cccnc3)oc(=O)c12 — what was its pIC50?
OUT: 5.74

IN: Sample Cc1c(NC(=O)OC(C)(C)C)ccc2nc(N(C)[C@@H](Cc3ccccc3)C(=O)N(C)CCc3ccccn3)oc(=O)c12 — what was its pIC50?
OUT: 5.59

IN: Sample Cc1c(NC(=O)CCNC(=O)c2ccc(C(F)(F)F)cc2)ccc2nc(N[C@@H](C)C(=O)N(C)CCc3ccccn3)oc(=O)c12 — what was its pIC50?
OUT: 5.52

IN: Sample Cc1c(NC(=O)OC(C)(C)C)ccc2nc(N(C)[C@@H](C)C(=O)N(C)CCc3ccncc3)oc(=O)c12 — what was its pIC50?
OUT: 5.85

IN: Sample Cc1c(NC(=O)OC(C)(C)C)ccc2nc(N3C[C@H](OCc4ccccc4)C[C@H]3C(=O)NCCc3ccccn3)oc(=O)c12 — what was its pIC50?
OUT: 5.57

IN: Sample Cc1c(NC(=O)c2ccccc2C(F)(F)F)ccc2nc(NC(C)(C)C(=O)N(C)CCc3ccccn3)oc(=O)c12 — what was its pIC50?
OUT: 5.64

IN: Sample Cc1cccc(C(=O)Nc2ccc3nc(NC(C)(C)C(=O)N(C)CCc4ccccn4)oc(=O)c3c2C)c1 — what was its pIC50?
OUT: 5.48

IN: Sample Cc1c(NC(=O)c2cc(Cl)sc2Cl)ccc2nc(NC(C)(C)C(=O)N(C)CCc3ccccn3)oc(=O)c12 — what was its pIC50?
OUT: 5.74

IN: Sample Cc1c(NC(=O)c2cccc(CCl)c2)ccc2nc(NC(C)(C)C(=O)N(C)CCc3ccccn3)oc(=O)c12 — what was its pIC50?
OUT: 5.82

IN: Sample Cc1c(NC(=O)OC(C)(C)C)ccc2nc(NC3(C(=O)N(C)CCc4cccnc4)CC3)oc(=O)c12 — what was its pIC50?
OUT: 5.68

* * *

tested on: Vero cells; test: Cytotoxicity, Vero cells, Alamar Blue; type: cell-based; settings: 25 μM, 20 hours
QUANTITY KIND: Cell viability (% of control) (%)
Write down the numeric answer in % and omit the unit.

For orientation, consider the following solved cases.
Cc1c(NC(=O)c2ccc(-c3ccccc3)cc2)ccc2nc(NC(C)(C)C(=O)N(C)CCc3ccccn3)oc(=O)c12 | 7.0
Cc1c(NC(=O)OC(C)(C)C)ccc2nc(N[C@@H](Cc3ccccc3)C(=O)NCc3ccccn3)oc(=O)c12 | 101.0

IN: Sample Cc1c(NC(=O)c2sccc2Cl)ccc2nc(NC(C)(C)C(=O)N(C)CCc3ccccn3)oc(=O)c12 — what was its Cell viability (% of control)?
OUT: 61.7
